Reference for the values: the supplement of paper PMC8633005

test system: FM-MEL-6; assay: drug sensitivity score (DSS) (DSS (unitless, 0-50 scale)); higher = more sensitive (stronger viability inhibition); extreme values may be limits of the assay; settings: 72 h; culture: 2D
measurement.kind: drug sensitivity score

Some solved entries appear below for comparison.
smiles | measurement.kind | observed.value
Cc1cc2c(F)c(Oc3ncnn4cc(OC[C@@H](C)O)c(C)c34)ccc2[nH]1 | drug sensitivity score | 0
CC[C@@H](C(=O)[C@@H](C)[C@@H](O)[C@H](C)[C@@H]1O[C@@H]([C@@H](CC)C(=O)O)CC[C@@H]1C)[C@H]1O[C@]2(C=C[C@@H](O)[C@]3(CC[C@@](C)([C@H]4CC[C@](O)(CC)[C@H](C)O4)O3)O2)[C@H](C)C[C@@H]1C | drug sensitivity score | 13.2
CC(C)(C)Cn1c(N)nc2ccc(-c3[nH]c(C(C)(C)C)nc3-c3ccc(F)cc3)nc21 | drug sensitivity score | 0
CC(=O)Nc1ccc(C(=O)Nc2ccccc2N)cc1 | drug sensitivity score | 1.7
NCCNc1ccc(NCCN)c2c1C(=O)c1ccncc1C2=O | drug sensitivity score | 0.8
Cc1ccc(Nc2nccc(N(C)c3ccc4c(C)n(C)nc4c3)n2)cc1S(N)(=O)=O | drug sensitivity score | 0.4
CC(C)n1cnc2c(NCCc3ccc(O)cc3)nc(-c3csc4ccccc34)nc21 | drug sensitivity score | 3.6

Request: So what drug sensitivity score did O=C(O)c1ccc(-c2c[nH]c3ncc(-c4ccccc4)cc23)cc1C1CCCC1 get with FM-MEL-6?
Result: 0

---

tested on: Bowes; test: drug sensitivity score (DSS) (DSS (unitless, 0-50 scale)); higher = more sensitive (stronger viability inhibition); extreme values may be limits of the assay; settings: 72 h; culture: 2D
# drug sensitivity score values compiled below

Some solved entries appear below for comparison.
smiles | test.system | drug sensitivity score
CO[C@H]1C[C@@H]2CC[C@@H](C)[C@@](O)(O2)C(=O)C(=O)N2CCCC[C@H]2C(=O)O[C@H]([C@H](C)C[C@@H]2CC[C@@H](O)[C@H](OC)C2)CC(=O)[C@H](C)/C=C(\C)[C@@H](O)[C@@H](OC)C(=O)[C@H](C)C[C@H](C)/C=C/C=C/C=C/1C | Bowes | 0
Cc1cnc(-c2ccccc2C(C)C)nc1NCc1ccc(-n2ccnn2)cc1 | Bowes | 0.6
Cc1ccc(C(=O)N(CCCN)[C@@H](c2oc3cc(Cl)ccc3c(=O)c2Cc2ccccc2)C(C)C)cc1 | Bowes | 7.7

Request: // query drug sensitivity score value for entry Nc1cc(COc2c(Cl)cc(C[C@H](N)C(=O)O)cc2Cl)c2oc(-c3ccccc3)nc2c1
Result: 0

Request: Same again, this time with Cc1c(-c2ccc(N3CCc4cccc(C(=O)Nc5nc6ccccc6s5)c4C3)nc2C(=O)O)cnn1CC12CC3CC(CC(C3)C1)C2
Result: 0

Request: Same again, this time with CCCCc1nc2cc(/C=C/C(=O)NO)ccc2n1CCN(CC)CC
Result: 9.2

Request: Same again, this time with Clc1ccccc1C(c1ccccc1)(c1ccccc1)n1cccn1
Result: 0

---

# drug sensitivity score values compiled below
tested on: FM-MEL-6; assay: drug sensitivity score (DSS) (DSS (unitless, 0-50 scale)); higher = more sensitive (stronger viability inhibition); extreme values may be limits of the assay; conditions: 72 h; culture: 2D
Form: value (number only, do not type unit).

Some solved entries appear below for comparison.
molecule | drug sensitivity score
CCC1=C[C@@H]2CN(C1)Cc1c([nH]c3ccccc13)[C@@](C(=O)OC)(c1cc3c(cc1OC)N(C)[C@H]1[C@@](O)(C(=O)OC)[C@H](OC(C)=O)[C@]4(CC)C=CCN5CC[C@]31[C@@H]54)C2 [Vinorelbine] | 23.3
Cc1c(C(=O)Nc2ccc(N3C[C@@H](C)O[C@@H](C)C3)nc2)cccc1-c1ccc(OC(F)(F)F)cc1 [Sonidegib] | 0.1

Request: // query drug sensitivity score value for entry CN(C(=O)c1ccc(F)cc1C(F)(F)F)C1CCN(c2nnc(-c3ccnn3C)c3ccccc23)CC1 [Taladegib]
Result: 0

---

test system: FM-MEL-6; experiment: drug sensitivity score (DSS) (DSS (unitless, 0-50 scale)); higher = more sensitive (stronger viability inhibition); extreme values may be limits of the assay; conditions: 72 h; culture: 2D
measurement.kind: drug sensitivity score
Form: value (number only, do not type unit).

Some solved entries appear below for comparison.
compound | drug sensitivity score
Nc1cccc2c1C(=O)N(C1CCC(=O)NC1=O)C2=O (stereo not given) [Pomalidomide] | 0
Nc1nc(F)nc2c1ncn2[C@@H]1O[C@H](CO)[C@@H](O)[C@@H]1O | 3.1
c1cc(CN2CCCNCCNCCCNCC2)ccc1CN1CCCNCCNCCCNCC1 | 0

Request: // query drug sensitivity score value for entry Clc1ccc(C(c2ccccc2Cl)C(Cl)Cl)cc1 (stereo not given)
Result: 0

Request: Same again, this time with CCN(CC)CCNC(=O)c1c(C)[nH]c(/C=C2\C(=O)Nc3ccc(F)cc32)c1C
Result: 0

Request: Same again, this time with Cn1cnc2c(F)c(Nc3ccc(Br)cc3F)c(C(=O)NOCCO)cc21
Result: 7.7

Request: Same again, this time with CCOCc1nc2c(N)nc3ccccc3c2n1CC(C)(C)O
Result: 0.2

Request: Same again, this time with CO[C@H]1C[C@@H]2CC[C@@H](C)[C@@](O)(O2)C(=O)C(=O)N2CCCC[C@H]2C(=O)O[C@H]([C@H](C)C[C@@H]2CC[C@@H](OP(C)(C)=O)[C@H](OC)C2)CC(=O)[C@H](C)/C=C(\C)[C@@H](O)[C@@H](OC)C(=O)[C@H](C)C[C@H](C)/C=C/C=C/C=C/1C
Result: 2.7

Request: Same again, this time with O=C(/C=C\n1cnc(-c2cc(C(F)(F)F)cc(C(F)(F)F)c2)n1)NNc1cnccn1 [Selinexor]
Result: 8.4

Request: Same again, this time with C[C@@H]1CN(CC(=O)Nc2ccc3c(c2)Cc2cccc(-c4cc(=O)cc(N5CCOCC5)o4)c2S3)C[C@H](C)O1
Result: 1

Request: Same again, this time with Nc1nc2[nH]cc(CCc3ccc(C(=O)N[C@@H](CCC(=O)O)C(=O)O)cc3)c2c(=O)[nH]1
Result: 0.1

Request: Same again, this time with CC(C)(C)NC(=O)[C@H]1CC[C@H]2[C@@H]3CC[C@H]4NC(=O)C=C[C@]4(C)[C@H]3CC[C@]12C [Finasteride]
Result: 0

Request: Same again, this time with O=C(c1ccc(OCCN2CCCCC2)cc1)c1c(-c2ccc(O)cc2)sc2cc(O)ccc12
Result: 1.8

Request: Same again, this time with COc1cc(OC)c(/C=C/S(=O)(=O)Cc2ccc(OC)c(NCC(=O)O)c2)c(OC)c1
Result: 18.6

Request: Same again, this time with COc1cc2c(Oc3ccc(NC(=O)C4(C(=O)Nc5ccc(F)cc5)CC4)cc3F)ccnc2cc1OCCCN1CCOCC1
Result: 0.9

---

# drug sensitivity score values compiled below
tested on: FM-MEL-6; test: drug sensitivity score (DSS) (DSS (unitless, 0-50 scale)); higher = more sensitive (stronger viability inhibition); extreme values may be limits of the assay; details: 72 h; culture: 2D
Form: value (number only, do not type unit).

Some solved entries appear below for comparison.
smiles | test.system | measurement.kind | observed.value
Nc1ccn([C@@H]2O[C@H](CO)[C@@H](O)C2(F)F)c(=O)n1 | FM-MEL-6 | drug sensitivity score | 10.3
Oc1ccc2c(c1)CC[C@H](c1ccccc1)[C@@H]2c1ccc(OCCN2CCCC2)cc1 | FM-MEL-6 | drug sensitivity score | 0
Cc1c(F)cc(C(=O)NC2CC2)cc1-c1ccc(C(=O)NCC(C)(C)C)cn1 | FM-MEL-6 | drug sensitivity score | 0
CN1CCN(CCOc2cc(OC3CCOCC3)c3c(Nc4c(Cl)ccc5c4OCO5)ncnc3c2)CC1 | FM-MEL-6 | drug sensitivity score | 0.9
CCn1c(C(=O)N(C2CC2)C2CC2)cc2c3c(ncn3C)c(Nc3cc(C)n(C)n3)nc21 | FM-MEL-6 | drug sensitivity score | 0.8
O=C(NCc1ccncc1)C12CC3CC(C1)CC(c1ccc(Cl)cc1)(C3)C2 | FM-MEL-6 | drug sensitivity score | 1.2
N#Cc1ccc2[nH]c(O)c(-c3ccc(CN4CCOCC4)cn3)c2c1 | FM-MEL-6 | drug sensitivity score | 0

Now, please, on to the next molecule.
Request: // query drug sensitivity score value for entry CC1(C)CCC(c2ccc(Cl)cc2)=C(CN2CCN(c3ccc(C(=O)NS(=O)(=O)c4ccc(N[C@H](CCN5CCOCC5)CSc5ccccc5)c(S(=O)(=O)C(F)(F)F)c4)cc3)CC2)C1
Result: 0

---

# drug sensitivity score values compiled below
test system: FM-MEL-6; assay: drug sensitivity score (DSS) (DSS (unitless, 0-50 scale)); higher = more sensitive (stronger viability inhibition); extreme values may be limits of the assay; conditions: 72 h; culture: 2D
Form: value (number only, do not type unit).

Some solved entries appear below for comparison.
smiles | drug sensitivity score
CN1CCC(COc2cnc(-c3cccc(Cn4nc(-c5cccc(C#N)c5)ccc4=O)c3)nc2)CC1 | 0
Cc1cnc(-c2ccccc2C(C)C)nc1NCc1ccc(-n2ccnn2)cc1 | 0
CC(=O)O[C@H]1C(=O)[C@@]2(C)[C@H]([C@H](OC(=O)c3ccccc3)[C@]3(O)C[C@H](OC(=O)[C@H](O)[C@@H](NC(=O)c4ccccc4)c4ccccc4)C(C)=C1C3(C)C)[C@]1(OC(C)=O)CO[C@@H]1C[C@@H]2O | 13.7
COc1cc(Nc2ncc(F)c(Nc3ccc4c(n3)NC(=O)C(C)(C)O4)n2)cc(OC)c1OC | 0
CC(C)[C@H](C(=O)Nc1ccc(C(=O)NO)cc1)c1ccccc1 | 11.6

Request: // query drug sensitivity score value for entry Cc1nc(Nc2n[nH]c3c2CN(C(=O)N[C@H](CN(C)C)c2ccccc2)C3(C)C)c2sccc2n1
Result: 14.8

Request: Same again, this time with Cc1ccc(C(=O)N(CCCN)[C@@H](c2oc3cc(Cl)ccc3c(=O)c2Cc2ccccc2)C(C)C)cc1
Result: 5.4
